- system: 5-hydroxytryptamine receptor 2A (Sus scrofa, UniProt P50129)
- Sequence (P50129 whole entry): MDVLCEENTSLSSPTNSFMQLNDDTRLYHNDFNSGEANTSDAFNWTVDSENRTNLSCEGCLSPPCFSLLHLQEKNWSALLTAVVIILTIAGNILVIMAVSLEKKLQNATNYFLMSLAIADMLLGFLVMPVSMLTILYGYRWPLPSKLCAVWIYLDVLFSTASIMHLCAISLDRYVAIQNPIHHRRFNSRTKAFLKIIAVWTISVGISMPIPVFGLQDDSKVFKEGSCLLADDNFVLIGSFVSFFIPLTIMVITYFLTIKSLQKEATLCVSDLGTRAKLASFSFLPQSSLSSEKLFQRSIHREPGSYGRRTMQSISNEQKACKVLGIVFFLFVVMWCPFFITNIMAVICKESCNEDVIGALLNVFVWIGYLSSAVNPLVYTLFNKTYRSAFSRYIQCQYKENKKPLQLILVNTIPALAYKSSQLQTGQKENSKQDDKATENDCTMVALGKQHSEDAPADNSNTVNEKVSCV
measured_metric: log10(Ki) (log10 of the value in nM)
Note the log scale: values are log10 of Ki expressed in nM.

Here is how some compounds turned out for log10(Ki).
[[record]]
compound = "COc1ccc2[nH]cc(CCN)c2c1"
system = "5-hydroxytryptamine receptor 2A (Sus scrofa, UniProt P50129)"
endpoint_result = 2.97

[[record]]
compound = "CN1C[C@H](C(=O)NC2CCCCC2)C[C@@H]2c3cccc4[nH]cc(c34)C[C@H]21"
system = "5-hydroxytryptamine receptor 2A (Sus scrofa, UniProt P50129)"
endpoint_result = 0.56

[[record]]
compound = "NCCc1c[nH]c2ccccc12"
system = "5-hydroxytryptamine receptor 2A (Sus scrofa, UniProt P50129)"
endpoint_result = 3.53

[[record]]
compound = "CC(O)C(C)OC(=O)C1CC2c3cccc4c3c(cn4C(C)C)CC2N(C)C1 (centres undefined)"
system = "5-hydroxytryptamine receptor 2A (Sus scrofa, UniProt P50129)"
endpoint_result = 1.60

[[record]]
compound = "CC(O)C(C)OC(=O)[C@@H]1C[C@@H]2c3cccc4c3c(cn4C)C[C@H]2N(C)C1 (some centres undefined)"
system = "5-hydroxytryptamine receptor 2A (Sus scrofa, UniProt P50129)"
endpoint_result = 1.76


Q. Which log10(Ki) value belongs to CC(C)n1cc(CCN)c2ccccc21 ?
A. 3.76

Q. // returns reported log10(Ki) for input CN1C[C@H](CNC(=O)OCc2ccccc2)C[C@@H]2c3cccc4c3c(cn4C)C[C@H]21
A. -0.43

Q. For CC(O)C(C)OC(=O)C1CC2c3cccc4[nH]cc(c34)CC2N(C)C1 (centres undefined) , what is its reported log10(Ki)?
A. 0.66

Q. Consider the compound shown here: CC(C)Cn1cc2c3c(cccc31)[C@H]1C[C@@H](C(=O)OC(C)C(C)O)CN(C)[C@@H]1C2 (some centres undefined) What is its recorded log10(Ki)?
A. 2.17

---

5-hydroxytryptamine receptor 2A (Macaca mulatta): recorded pKi for assorted compounds
Sequence (P50128 whole entry): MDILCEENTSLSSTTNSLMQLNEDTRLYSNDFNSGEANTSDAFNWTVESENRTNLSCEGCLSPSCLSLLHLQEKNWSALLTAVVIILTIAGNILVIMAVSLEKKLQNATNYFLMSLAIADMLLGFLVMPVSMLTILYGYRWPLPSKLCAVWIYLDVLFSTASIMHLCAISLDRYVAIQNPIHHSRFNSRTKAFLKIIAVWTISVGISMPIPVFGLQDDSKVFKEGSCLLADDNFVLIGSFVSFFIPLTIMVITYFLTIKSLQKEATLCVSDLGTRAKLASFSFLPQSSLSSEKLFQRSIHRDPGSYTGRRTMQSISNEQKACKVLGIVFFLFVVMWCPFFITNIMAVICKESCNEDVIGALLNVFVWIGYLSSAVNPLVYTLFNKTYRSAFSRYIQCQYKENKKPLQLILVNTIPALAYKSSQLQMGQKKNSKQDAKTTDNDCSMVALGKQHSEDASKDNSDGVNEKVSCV
Note: pKi values are expressed as the negative base-10 logarithm of concentration in M.

Here are 8 compounds together with their reported answers.
[[record]]
compound = "CC(O)C(C)OC(=O)C1CC2c3cccc4c3c(cn4C(C)C)CC2N(C)C1 (centres undefined)"
endpoint_result = 7.48

[[record]]
compound = "CC(O)C(C)OC(=O)[C@@H]1C[C@@H]2c3cccc4c3c(cn4C)C[C@H]2N(C)C1 (some centres undefined)"
endpoint_result = 7.25

[[record]]
compound = "CC(C)Cn1cc2c3c(cccc31)[C@H]1C[C@@H](C(=O)OC(C)C(C)O)CN(C)[C@@H]1C2 (some centres undefined)"
endpoint_result = 6.82

[[record]]
compound = "CC(O)C(C)OC(=O)C1CC2c3cccc4[nH]cc(c34)CC2N(C)C1 (centres undefined)"
endpoint_result = 8.49

[[record]]
compound = "CC(C)n1cc2c3c(cccc31)C1CC(C(=O)NC3CCCCC3)CN(C)C1C2 (centres undefined)"
endpoint_result = 7.58

[[record]]
compound = "CN1C[C@@H](NS(=O)(=O)N(C)C)C[C@@H]2c3cccc4c3c(cn4C)C[C@H]21"
endpoint_result = 7.35

[[record]]
compound = "CN1C[C@H](C(=O)NC2CCCCC2)C[C@@H]2c3cccc4[nH]cc(c34)C[C@H]21"
endpoint_result = 8.68

[[record]]
compound = "CN1C[C@H](CNC(=O)OCc2ccccc2)C[C@@H]2c3cccc4c3c(cn4C)C[C@H]21"
endpoint_result = 9.09


Next:
Q. pKi for CC(CO)NC(=O)C1C=C2c3cccc4[nH]cc(c34)CC2N(C)C1 (centres undefined) ?
A. 8.47
